src = paper PMC6071225

tgt: I223V NA2009
run.conditions: pH 6.15
measure: Kd

[[record]]
compound = "CCC(CC)O[C@@H]1C=C(C(=O)O)C[C@H](N)[C@H]1NC(C)=O [oseltamivir carboxylate]"
measure = "Kd"
result = "520 nM"


----------
tgt: H275Y/S247N NA2009
measure: Ki (µM)

[[record]]
compound = "CCC(CC)O[C@@H]1C=C(C(=O)O)C[C@H](N)[C@H]1NC(C)=O [oseltamivir carboxylate]"
measure = "Ki"
numeric_value = 220


----------
tgt: S247N NA2009
measure: Ki (nM)

[[record]]
compound = "CCC(CC)O[C@@H]1C=C(C(=O)O)C[C@H](N)[C@H]1NC(C)=O [oseltamivir carboxylate]"
tgt = "S247N NA2009"
display_unit = "nM"
numeric_value = 450

